test system: Plasmodium falciparum 3D7; construct: 3D7 parental line, asexual blood stage; experiment: microbe, parasite or virus in culture; parameters: species or system P. falciparum 3D7 in human erythrocytes; Asexual blood stage growth inhibition dose response of parental 3D7 parasites, EC50; details: 3D7, Erythrocyte, read-out: Atovaquone (ATQ) / EC50 [nM]
assay-metric: EC50 (nM)
Give bare numbers, in nM.

Query: EC50; subject: O=C1C(O)=C([C@H]2CC[C@H](c3ccc(Cl)cc3)CC2)C(=O)c2ccccc21 [atovaquone] 0.287

----------
system: Plasmodium falciparum 3D7; construct: 3D7 parental line, asexual blood stage; assay: microbe, parasite or virus in culture; set-up: species or system P. falciparum 3D7 in human erythrocytes; Asexual blood stage growth inhibition dose response of parental 3D7 parasites, EC50; settings: 3D7, Erythrocyte, read-out: Quinine (QN) / EC50 [nM]
assay-metric: EC50

// lookup EC50 for C=C[C@H]1CN2CC[C@H]1C[C@H]2[C@H](O)c1ccnc2ccc(OC)cc12 37.3 nM
